# tested.on: α2β4 nAChR (Rattus norvegicus, UniProt P12389+P12392)
# Construct: expressed in transfected cells
# Sequence (P12389 28-511): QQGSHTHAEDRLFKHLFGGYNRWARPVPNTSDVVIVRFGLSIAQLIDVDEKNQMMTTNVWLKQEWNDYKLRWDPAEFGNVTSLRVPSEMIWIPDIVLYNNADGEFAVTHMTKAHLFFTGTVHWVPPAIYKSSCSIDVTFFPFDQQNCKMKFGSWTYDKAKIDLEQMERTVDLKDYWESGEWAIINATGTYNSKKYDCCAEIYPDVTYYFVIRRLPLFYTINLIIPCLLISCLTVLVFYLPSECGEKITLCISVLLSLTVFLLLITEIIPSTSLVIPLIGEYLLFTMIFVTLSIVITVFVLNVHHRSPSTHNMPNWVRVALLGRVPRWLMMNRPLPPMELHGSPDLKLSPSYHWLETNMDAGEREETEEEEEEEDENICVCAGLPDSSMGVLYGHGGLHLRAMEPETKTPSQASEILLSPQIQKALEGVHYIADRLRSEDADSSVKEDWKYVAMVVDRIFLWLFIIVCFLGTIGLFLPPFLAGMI
# Sequence (P12392 21-495): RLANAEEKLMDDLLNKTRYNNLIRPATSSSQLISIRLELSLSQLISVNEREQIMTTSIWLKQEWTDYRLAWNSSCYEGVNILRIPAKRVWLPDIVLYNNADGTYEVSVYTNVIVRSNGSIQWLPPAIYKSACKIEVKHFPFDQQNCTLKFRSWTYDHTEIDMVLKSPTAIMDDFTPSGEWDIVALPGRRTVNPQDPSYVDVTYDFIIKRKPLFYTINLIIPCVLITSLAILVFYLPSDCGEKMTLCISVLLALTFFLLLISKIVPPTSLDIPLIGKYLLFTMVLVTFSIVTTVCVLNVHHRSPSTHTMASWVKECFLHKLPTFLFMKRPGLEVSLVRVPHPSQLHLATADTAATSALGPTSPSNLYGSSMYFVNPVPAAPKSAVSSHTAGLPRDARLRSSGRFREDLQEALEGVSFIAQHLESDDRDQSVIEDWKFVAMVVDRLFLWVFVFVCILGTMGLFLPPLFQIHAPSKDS
# assay.info: Competition binding with [3H]epibatidine, membrane homogenates of stably transfected cells
Provide the reported pKi of each item.
Give bare numbers, as −log10 of the molar value.

Return reported pKi values for all items listed beneath this line.
1. Cc1cc2n(c(=O)c1)CC1CNCC2C1 (racemic)
2. O=c1cc(CO)cc2n1CC1CNCC2C1 (racemic) [rac-17a]

1. 6.74
2. 6.52

----------
# tested.on: α2β4 nAChR (Rattus norvegicus, UniProt P12389+P12392)
# Construct: expressed in transfected cells
# assay.info: Competition binding with [3H]epibatidine, membrane homogenates of stably transfected cells
# applied.conditions: primary screening; estimated from single concentration (10 μM) competition binding; read-out: Estimated Ki α2β4
recorded.metric: potency estimated from few doses (µM)
Answers are plain numbers, in µM.

Look over these answered cases.
{"compound": "O=c1ccccn1CC1CCN(Cc2ccccc2)CC1", "tested.on": "α2β4 nAChR (Rattus norvegicus, UniProt P12389+P12392)", "recorded.metric": "potency estimated from few doses", "numeric.result": 440}
{"compound": "O=c1ccccn1CC1CCCN(Cc2ccccc2)C1 (centres unmarked)", "tested.on": "α2β4 nAChR (Rattus norvegicus, UniProt P12389+P12392)", "recorded.metric": "potency estimated from few doses", "numeric.result": 91}

List reported potency estimated from few doses for each of these compounds:
1. O=c1ccccn1CC1CCNCC1
2. CN1CCCC(Cn2ccccc2=O)C1 (centres unmarked)
3. O=c1ccccn1CC1CCCNC1 (centres unmarked)

[80, 180, 159]
